- test-method-notes: Cytotoxicity against human BJ cells assessed as reduction in cell viability incubated for 72 hrs by MTS assay
- Assay type: toxicity, cell-based

# molecule, IC50 at 72 h
data = [
    ("CC1(C)CC[C@]2(C(=O)O)CC[C@]3(C)C(=CC[C@@H]4[C@@]5(C)Cc6cccnc6C(C)(C)[C@@H]5CC[C@]43C)[C@@H]2C1", "> 50 µM"),
    ("Cc1oc(=O)oc1COC(=O)[C@]12CC[C@@H](C(C)C)[C@@H]1[C@H]1CC[C@@H]3[C@@]4(C)Cc5cccnc5C(C)(C)[C@@H]4CC[C@@]3(C)[C@]1(C)CC2", "> 50 µM"),
    ("C[C@H]1[C@H](C)CC[C@]2(C(=O)O)CC[C@]3(C)C(=CC[C@@H]4[C@@]5(C)CCC(=O)C(C)(C)[C@@H]5CC[C@]43C)[C@H]12 [URSONIC ACID]", "> 50 µM"),
]
